# reported EC50; entries follow
TESTED ON: T1, rat PRLR ECD-Fc fusion protein (rat, UniProt P05710 20-229)
T1 construct: extracellular domain; not shown: Fc region (captured by goat anti-human Fc)
T1 sequence (looked up): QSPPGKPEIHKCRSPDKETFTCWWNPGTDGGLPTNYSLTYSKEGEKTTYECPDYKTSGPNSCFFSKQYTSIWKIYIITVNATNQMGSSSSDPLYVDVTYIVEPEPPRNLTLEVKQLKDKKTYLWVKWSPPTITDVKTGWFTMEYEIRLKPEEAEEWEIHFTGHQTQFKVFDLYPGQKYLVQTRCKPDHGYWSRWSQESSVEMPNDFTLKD
ASSAY METHOD TEXT: ELISA on ECD
Quick reminder: number only, in nM, skip the unit.

Below: 2 binders and their reported EC50.
Enquiry: Tell me the measured EC50 of Ab13 (antibody, V domains shown, murine monoclonal, isotype G2a; also called murine Ab13) VH: QVQLQQPGAELVRPGTSVKLSCKASGYTFTSFWMHWVKQRPGQGLEWIGVIDPSDSHTNYNQKFKGKATLTVNTSSSTAYMHLSSLTSEDSAVYYCARGDYSNWFTYWGQGTLVTVSA VL: DVVMTQTPFSLPVSLGDQASISCRSSQSLVHSNGNTYLHWYLQKPGQSPKLLIYKVSNRFSGVPDRFSGSGSGTDFTLKISRVEAEDLELYFCSQSTHVPWTFGGGTKLEIK , please.
Return: 0.085

Enquiry: Tell me the measured EC50 of Ab27 (antibody, human IgG1, kappa, V domains shown, humanized from Ab5; G1; also called Ab2 HC.1 and Ab2 LC.1a) VH: EVQLVQSGAEVKKPGSSVKVSCKASGYTFTSFWMHWVRQAPGQGLEWMGVIDPSDTYTNYNQKFKGRVTITADESTSTAYMELSSLRSEDTAVYYCARGDYSNWFTYWGQGTLVTVSS VL: DVVMTQTPLSLSVTPGQPASISCRSSQRLVHSNGNTYLHWYLQKPGQSPQLLIYKVSNRFSGVPDRFSGSGSGTDFTLKISRVEAEDVGVYFCSQSTHVPWTFGGGTKVEIKR , please.
Return: 0.125

Below: the item to evaluate.
Enquiry: Tell me the measured EC50 of Ab12 (antibody, V domains shown, murine monoclonal, isotype G2a; reported as PRLR agonist; also called murine Ab12) VH: DVQLQESGPGLVKPSQSLSLTCTVTGYSITSDYAWNWIRQFPGNKLEWMGYIGYSGRTSFNPSLKSRISITRDTSKNQFFLQLNSVTTEDTATYYCARGGFAMDYWGQGTSVTVSS VL: QIVLTQSPGIMSASPGEKVTMTCSASSSVTYMYWYQQKPRSSPKPWIYLTSNLASGVPARFSGSGSGTSYSLTISSMEAEDGATYYCQQWSSTPPLTFGGGTKLELN , please.
Return: 0.116
